Provenance of the data: patent US8586611B2

tested on: Phytophthora infestans; assay: whole plant or invertebrate; format: in vivo; details: tomato late blight; spray the day before inoculation; compounds without asterisk (not 40 or 10 ppm)
Just a reminder that ties go to NOT MET: only Test C disease rating (100 = 100% disease control, 0 = no disease control) strictly below 80% counts as MET.

Q: Strictly below 80% in Test C disease rating (100 = 100% disease control, 0 = no disease control)? Cc1ccc(C)c(CC(=O)N2CCC(c3nc(C(=O)N(C)C4CCc5ccccc5C4)cs3)CC2)c1 (stereo not drawn)
A: NOT MET

Q: Also COc1ccccc1NC(=O)N1CCC(c2nc(C(=O)N(C)[C@H](C)c3ccccc3)co2)CC1 , if possible.
A: NOT MET

Q: Also C[C@H](c1ccccc1)N(C)C(=O)c1csc(C2CCN(C(=O)Cc3ccncc3)CC2)n1 , if possible.
A: MET

Q: Also Cc1cc(C(F)(F)F)nn1CC(=O)N1CCC(c2nc(C(=O)N(C)[C@@H]3CCCc4ccccc43)no2)CC1 , if possible.
A: NOT MET

Q: Also Cc1ccc(C)c(CC(=O)N2CCC(c3nc(C(=O)N(C)C(C)c4cccnc4)cs3)CC2)c1 (stereo not drawn) , if possible.
A: NOT MET

Q: Also Cc1cn(CC(=O)N2CCC(c3nc(C(=O)N(C)[C@H](C)c4ccccc4)cs3)CC2)c(C)n1 , if possible.
A: MET

Q: Also Cc1cc(C)cc(CC(=O)N2CCC(c3nc(C(=O)N(C)[C@H](C)c4ccccc4)cs3)CC2)c1 , if possible.
A: NOT MET

Q: Also CN(CCc1ccccc1)C(=O)c1csc(C2CCN(C(=O)Cc3ccccc3Cl)CC2)n1 , if possible.
A: MET

Q: Also Cc1ccc(C)c(CC(=O)N2CCC(c3nc(C(=O)N(C)C(C)c4cc(C)sc4C)cs3)CC2)c1 (stereo not drawn) , if possible.
A: NOT MET

Q: Also C[C@H](c1ccccc1)N(C)C(=O)c1csc(C2CCN(C(=S)Nc3cccc(C(F)(F)F)c3)CC2)n1 , if possible.
A: MET

Q: Also Cc1ccc(C)c(CC(=O)N2CCC(c3nc(C(=O)N(C)C4CCCC(C)C4)cs3)CC2)c1 (stereo not drawn) , if possible.
A: NOT MET

Q: Also CN(Cc1cccnc1)C(=O)c1csc(C2CCN(C(=O)Cc3cccc(C(F)(F)F)c3)CC2)n1 , if possible.
A: MET

Q: Also COC(=O)[C@H](c1ccccc1)N(C)C(=O)c1csc(C2CCN(C(=O)Cn3nc(C(F)(F)F)cc3C)CC2)n1 , if possible.
A: NOT MET

Q: Also Cc1ccc(C)c(CC(=O)N2CCC(c3nc(C(=O)N(C)C4CSCc5ccccc54)cs3)CC2)c1 (stereo not drawn) , if possible.
A: NOT MET
